target.of.assay: recombinant PRL-3 (Homo sapiens)
Construct: 6xHis (N, cleaved yes); made in house; host or cells: E. coli One Shot BL21 Star
Sequence (O75365 whole entry): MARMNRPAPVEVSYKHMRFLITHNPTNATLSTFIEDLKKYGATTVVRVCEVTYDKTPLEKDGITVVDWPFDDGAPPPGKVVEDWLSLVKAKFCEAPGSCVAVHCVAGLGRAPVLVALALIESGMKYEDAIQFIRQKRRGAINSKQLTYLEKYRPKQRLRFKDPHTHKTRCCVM
method.summary: In vitro phosphatase assay (DiFMUP hydrolysis), PRL-3; also: test concentration or dose not given here
Format: biochemical
conditions: FDA-approved drug screen; compared to DMSO
observation.type: % Phosphatase Activity (compared to DMSO) PRL-3 (%)

[[record]]
compound = "COc1ccc2[n-]c([S+]([O-])Cc3ncc(C)c(OC)c3C)nc2c1.COc1ccc2[n-]c([S+]([O-])Cc3ncc(C)c(OC)c3C)nc2c1.[Mg+2] (centres unmarked) [Esomeprazole Magnesium]"
target_of_assay = "recombinant PRL-3 (Homo sapiens)"
meas_value = 93

[[record]]
compound = "CCOc1ccc2ccccc2c1C(=O)N[C@@H]1C(=O)N2[C@@H]1SC(C)(C)[C@@H]2C(=O)O [Nafcillin Sodium]"
target_of_assay = "recombinant PRL-3 (Homo sapiens)"
meas_value = 60

[[record]]
compound = "COC(=O)C1=C(C#N)NC(C)=C(C(=O)OC(C)C)C1c1cccc([N+](=O)[O-])c1 (centres unmarked) [Nilvadipine]"
target_of_assay = "recombinant PRL-3 (Homo sapiens)"
meas_value = 87

[[record]]
compound = "Cc1cncc(CN2CCC(=C3c4ccc(Cl)cc4CCc4cccnc43)CC2)c1.O=C(O)/C=C/C(=O)O [Rupatadine Fumarate]"
target_of_assay = "recombinant PRL-3 (Homo sapiens)"
meas_value = 98

[[record]]
compound = "CC1COc2c(N3CCN(C)CC3)c(F)cc3c(=O)c(C(=O)O)cn1c23 (centres unmarked) [Ofloxacin]"
target_of_assay = "recombinant PRL-3 (Homo sapiens)"
meas_value = 134

